method: Placental transport in pregnant ewes: maternal and fetal serum levels after intramuscular administration
Format: in vivo
experimentalConditions: female, maternal serum, im; sheep, 5 mg/kg intramuscular, 20 min
measurementLabel: level at 20 min

Provide measured level at 20 min value, entry: CC(=O)O.CSCC[C@@H](C(N)=O)N(C)C(=O)[C@H](Cc1ccccc1)NC(=O)CNC(=O)[C@@H](C)NC(=O)[C@@H](N)Cc1ccc(O)cc1 [Metkephamid, acetate]
9430 ng/mL

* * *

method: Placental transport in pregnant ewes: maternal and fetal serum levels after intramuscular administration
Format: in vivo
experimentalConditions: female, maternal serum, im; sheep, 5 mg/kg intramuscular, 10 min
measurementLabel: level at 10 min (ng/mL)
State the answer as a number, implicitly in ng/mL.

Provide measured level at 10 min value, entry: CC(=O)O.CSCC[C@@H](C(N)=O)N(C)C(=O)[C@H](Cc1ccccc1)NC(=O)CNC(=O)[C@@H](C)NC(=O)[C@@H](N)Cc1ccc(O)cc1 [Metkephamid, acetate]
9460

* * *

method: Placental transport in pregnant ewes: maternal and fetal serum levels after intramuscular administration
Type: in vivo
experimentalConditions: female, maternal serum, im; sheep, 5 mg/kg intramuscular, 45 min
measurementLabel: level at 0.75 h (ng/mL)
State the answer as a number, implicitly in ng/mL.

Provide measured level at 0.75 h value, entry: CC(=O)O.CSCC[C@@H](C(N)=O)N(C)C(=O)[C@H](Cc1ccccc1)NC(=O)CNC(=O)[C@@H](C)NC(=O)[C@@H](N)Cc1ccc(O)cc1 [Metkephamid, acetate]
8540

Where do the numbers come from? From patent US4430327A.
